Test system: Diabrotica balteata (rootworm larvae)
Assay: Residual test on rootworm larvae (DB), Filter paper/maize seed, mortality
Assay type: in vivo
Conditions: 48 h, 500 ppm, residual, 2 days, read-out: DB grading of mortality
Record form. Attribute: mortality at 500 ppm. Fill in for each entry.

Task item: Form field: mortality at 500 ppm recorded for COCc1c(F)c(F)c(CSC(=O)C(c2cnc(C(C)(C)C)nc2)C(C)(C)C)c(F)c1F (racemic) with Diabrotica balteata (rootworm larvae) (enter value)
Reply: 80 to 100%

Task item: Form field: mortality at 500 ppm recorded for CC1(c2ncc(C(C(=O)OCc3ccc(F)c(Oc4ccccc4)c3)C(C)(C)C)cn2)CC1 (racemic) with Diabrotica balteata (rootworm larvae) (enter value)
Reply: < 50%

Task item: Form field: mortality at 500 ppm recorded for CC(C)(C)c1ncc(C(C(=O)OCc2c(F)c(F)c(CC3CC3)c(F)c2F)C(C)(C)C)cn1 (racemic) with Diabrotica balteata (rootworm larvae) (enter value)
Reply: < 50%

Task item: Form field: mortality at 500 ppm recorded for CC(C)(C)c1ncc(C(C(=O)OCc2ccc(F)c(Cc3ccccc3)c2)C(C)(C)C)cn1 (racemic) with Diabrotica balteata (rootworm larvae) (enter value)
Reply: 80 to 100%

----------
System: Diabrotica balteata (rootworm larvae)
Experiment: Residual test on rootworm larvae (DB), Filter paper/maize seed, mortality
Assay type: in vivo
Conditions: 48 h, 500 ppm, residual, 2 days, read-out: DB grading of mortality
property label: mortality at 500 ppm

Task item: Form field: mortality at 500 ppm recorded for C=CCc1c(F)c(F)c(COC(=O)C(c2cnc(C(C)(C)C)nc2)C(C)(C)C)c(F)c1F (racemic) with Diabrotica balteata (rootworm larvae) (enter value)
Reply: < 50%

Task item: Form field: mortality at 500 ppm recorded for CC(C)(C)c1ncc(C(C(=O)OCc2c(F)c(F)c(CCl)c(F)c2F)C(C)(C)C)cn1 (racemic) with Diabrotica balteata (rootworm larvae) (enter value)
Reply: 80 to 100%

Task item: Form field: mortality at 500 ppm recorded for CCOCc1c(F)c(F)c(COC(=O)C(c2cnc(C(C)(C)C)nc2)C(C)(C)C)c(F)c1F (racemic) with Diabrotica balteata (rootworm larvae) (enter value)
Reply: < 50%

Task item: Form field: mortality at 500 ppm recorded for COCc1c(F)c(F)c(COC(=O)C(c2cnc(N(C)C)nc2)C(C)(C)C)c(F)c1F (racemic) with Diabrotica balteata (rootworm larvae) (enter value)
Reply: 50 to 79%

Task item: Form field: mortality at 500 ppm recorded for CC(C)(C)OC(=O)COCc1c(F)c(F)c(COC(=O)C(c2cnc(C(C)(C)C)nc2)C(C)(C)C)c(F)c1F (racemic) with Diabrotica balteata (rootworm larvae) (enter value)
Reply: < 50%

Task item: Form field: mortality at 500 ppm recorded for CC(C)OC(=O)c1c(F)c(F)c(COC(=O)C(c2cnc(C(C)(C)C)nc2)C(C)(C)C)c(F)c1F (racemic) with Diabrotica balteata (rootworm larvae) (enter value)
Reply: < 50%

Task item: Form field: mortality at 500 ppm recorded for CC(C)(C)c1ncc([C@H](C(=O)O[C@H](c2cccc(Oc3ccccc3)n2)C(F)(F)F)C(C)(C)C)cn1 (racemic) with Diabrotica balteata (rootworm larvae) (enter value)
Reply: 80 to 100%

Task item: Form field: mortality at 500 ppm recorded for CC(C)(C)c1ncc(C(C(=O)OCc2c(F)c(F)c(Cc3ccccc3)c(F)c2F)C(C)(C)C)cn1 (racemic) with Diabrotica balteata (rootworm larvae) (enter value)
Reply: 80 to 100%

Task item: Form field: mortality at 500 ppm recorded for COCc1c(F)c(F)c(COC(=O)C(c2cnc(C3(C)CCCCC3)nc2)C(C)(C)C)c(F)c1F (racemic) with Diabrotica balteata (rootworm larvae) (enter value)
Reply: < 50%

Task item: Form field: mortality at 500 ppm recorded for CC(C)(C)c1ncc(C(C(=O)OCc2cccc(Oc3ccccc3)c2)C(C)(C)C)cn1 (racemic) with Diabrotica balteata (rootworm larvae) (enter value)
Reply: < 50%

Task item: Form field: mortality at 500 ppm recorded for CN(C)c1ncc(C(C(=O)OCc2ccc(F)c(Oc3ccccc3)c2)C(C)(C)C)cn1 (racemic) with Diabrotica balteata (rootworm larvae) (enter value)
Reply: < 50%

Task item: Form field: mortality at 500 ppm recorded for CSCc1c(F)c(F)c(COC(=O)C(c2cnc(C(C)(C)C)nc2)C(C)(C)C)c(F)c1F (racemic) with Diabrotica balteata (rootworm larvae) (enter value)
Reply: < 50%

----------
Test system: Musca domestica (houseflies - adults)
Experiment: Contact test on houseflies - adults (MD), Cotton wool/sugar, mortality
Type: in vivo
Settings: 72 h, 500 ppm, contact, 3 days, read-out: MD grading of mortality
Record form. Attribute: mortality at 500 ppm. Fill in for each entry.

Task item: Return reported mortality at 500 ppm; argument: Cc1ncc(C(C(=O)OCc2ccc(F)c(Oc3ccccc3)c2)C(C)(C)C)cn1 (racemic)
Reply: 80 to 100%

Task item: Return reported mortality at 500 ppm; argument: CCOC(=O)c1c(F)c(F)c(COC(=O)C(c2cnc(C(C)(C)C)nc2)C(C)(C)C)c(F)c1F (racemic)
Reply: < 50%

Task item: Return reported mortality at 500 ppm; argument: CCC(C)(C)c1ncc([C@H](C(=O)O[C@H](C)c2cccc(Oc3ccccc3)n2)C(C)(C)C)cn1 (racemic)
Reply: 80 to 100%

Task item: Return reported mortality at 500 ppm; argument: COc1c(F)c(COc2ccccc2)c(F)c(F)c1COC(=O)C(c1cnc(C(C)(C)C)nc1)C(C)(C)C (racemic)
Reply: < 50%

Task item: Return reported mortality at 500 ppm; argument: CC(OC(=O)C(c1cnc(C2CC2)nc1)C(C)(C)C)c1cccc(Oc2ccccc2)n1 (racemic)
Reply: < 50%

Task item: Return reported mortality at 500 ppm; argument: CC(C)(C)c1ncc(C(C(=O)OCc2cccc(Oc3ccccc3)c2)C(C)(C)C)cn1 (racemic)
Reply: < 50%

Task item: Return reported mortality at 500 ppm; argument: C=CCC(C(=O)OCc1c(F)c(F)c(COC)c(F)c1F)c1cnc(C(C)(C)C)nc1 (racemic)
Reply: < 50%

Task item: Return reported mortality at 500 ppm; argument: CCOc1c(F)c(COc2ccccc2)c(F)c(F)c1COC(=O)C(c1cnc(C(C)(C)C)nc1)C(C)(C)C (racemic)
Reply: < 50%

----------
System: Diabrotica balteata (rootworm larvae)
Assay: Residual test on rootworm larvae (DB), Filter paper/maize seed, mortality
Type: in vivo
Conditions: 48 h, 500 ppm, residual, 2 days, read-out: DB grading of mortality
property label: mortality at 500 ppm

Task item: Return reported mortality at 500 ppm; argument: Cc1ncc(C(C(=O)OCc2ccc(F)c(Oc3ccccc3)c2)C(C)(C)C)cn1 (racemic)
Reply: 80 to 100%

Task item: Return reported mortality at 500 ppm; argument: CC(C)(C)c1ncc(C(C(=O)OCc2c(F)c(F)c(CO)c(F)c2F)C(C)(C)C)cn1 (racemic)
Reply: < 50%

Task item: Return reported mortality at 500 ppm; argument: CCCc1c(F)c(F)c(COC(=O)C(c2cnc(C(C)(C)C)nc2)C(C)(C)C)c(F)c1F (racemic)
Reply: < 50%

Task item: Return reported mortality at 500 ppm; argument: CC(C)(C)c1ncc(C(C(=O)OCc2c(F)cccc2Cl)C(C)(C)C)cn1 (racemic)
Reply: 80 to 100%

Task item: Return reported mortality at 500 ppm; argument: CC(C)(C)c1ncc(C(C(=O)SCc2c(F)c(F)c(CO)c(F)c2F)C(C)(C)C)cn1 (racemic)
Reply: < 50%

Task item: Return reported mortality at 500 ppm; argument: COCc1c(F)c(F)c(COC(=O)C(c2cnc(C3(C)CC3)nc2)C(C)(C)C)c(F)c1F (racemic)
Reply: < 50%

Task item: Return reported mortality at 500 ppm; argument: COc1c(F)c(COc2ccccc2)c(F)c(F)c1COC(=O)C(c1cnc(C(C)(C)C)nc1)C(C)(C)C (racemic)
Reply: < 50%

Task item: Return reported mortality at 500 ppm; argument: C[C@@H](OC(=O)[C@@H](c1cnc(C(C)(C)C)nc1)C(C)(C)C)c1cccc(Oc2ccc(Cl)cc2)n1 (racemic)
Reply: 80 to 100%

----------
Record form. Attribute: mortality at 500 ppm. Fill in for each entry.
Tested on: Diabrotica balteata (rootworm larvae)
Test: Residual test on rootworm larvae (DB), Filter paper/maize seed, mortality
Type: in vivo
Settings: 48 h, 500 ppm, residual, 2 days, read-out: DB grading of mortality

Task item: Return reported mortality at 500 ppm; argument: COCc1c(F)c(F)c(COC(=O)C(c2cnc(C3CC3)nc2)C(C)(C)C)c(F)c1F (racemic)
Reply: 80 to 100%

Task item: Return reported mortality at 500 ppm; argument: CC(C)c1ncc(C(C(=O)OCc2ccc(F)c(Oc3ccccc3)c2)C(C)(C)C)cn1 (racemic)
Reply: 80 to 100%

Task item: Return reported mortality at 500 ppm; argument: CCN(CC)Cc1c(F)c(F)c(COC(=O)C(c2cnc(C(C)(C)C)nc2)C(C)(C)C)c(F)c1F (racemic)
Reply: < 50%
